Hello, the source for this data is PubChem BioAssay AID1918996, in case you need it.

Tested on: 349418-098-R-PDC complex spheroid growth;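 also: spheroids exposed to agents for seven days before luminescence viability read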
Assay: Anticancer human tumor 349418-098-R-PDC patient-derived lung adenocarcinoma cell line growth inhibition [AhR]
Conditions: curve of first compound; second compound 0.316 µM
Items are presented alongside their recorded pIC50.
pIC50 here: minus log base 10 of the concentration, concentration in moles per litre.

[
  {
    "compound": "O=C(c1cc(Cc2n[nH]c(=O)c3ccccc23)ccc1F)N1CCN(C(=O)C2CC2)CC1 + CC(CO)NC(=O)c1cc(-c2ccc(Cl)cc2)nn(-c2cnn(C)c2)c1=O",
    "result": 5.28
  }
]

Give recorded pIC50. CC1(C)CCC(CN2CCN(c3ccc(C(=O)NS(=O)(=O)c4ccc(NCC5CCOCC5)c([N+](=O)[O-])c4)c(Oc4cnc5[nH]ccc5c4)c3)CC2)=C(c2ccc(Cl)cc2)C1 + CC(CO)NC(=O)c1cc(-c2ccc(Cl)cc2)nn(-c2cnn(C)c2)c1=O
5.34

Give recorded pIC50. COc1cc(C2c3cc4c(cc3C(OC3OC5COC(C)OC5C(O)C3O)C3COC(=O)C23)OCO4)cc(OC)c1O (stereo unspecified) + Cc1cncc(-c2nc(NCCc3c[nH]c4ccccc34)c3ncn(C(C)C)c3n2)c1
6.42
